- Tested on: NCI/ADR-RES ovarian
- test-name: NCI-60 one-dose screen, 48 h (100 = growth as untreated, 0 = no growth, -100 = all killed)
- conditions-used: 10 µM unless noted
Compounds without any hit were thinned out: in the full panel of roughly 83,000, 20% have a hit.
In this section, each of the molecules is paired with its reported growth.
# output: bare number, implied unit %

molecule	growth [%]
COc1cc(C2CC(c3ccccc3)=NN2C=O)ccc1Oc1nc2c(c(=O)n(C)c(=O)n2C)n1C (stereo not drawn)	57.9
Fc1cc(-c2cnc3nonc3n2)c(Cl)cc1Cl	102
CCCCCCCCCCCC1=NC(C)(C)CN1C(C)C	47.3
O=C(C(=O)N1CCCC1)c1cn(CCCn2cc(C(=O)C(=O)N3CCCC3)c3cc(Br)ccc32)c2ccc(Br)cc12	51
CCOC(=O)c1ccc2c(c1)nc(-c1ccc(Cl)cc1)n2-c1cc(C(C)(C)C)[nH]n1	4.4

Query string: What measured growth goes with CCCCSc1ncnc2c1ncn2C1CCCCO1 (stereo not drawn) ?
Result string: 102

Query string: Recorded growth of CCOC(=O)C(CCCCC(NC(C)=O)(C(=O)OCC)C(=O)OCC)(NC(C)=O)C(=O)OCC , please.
Result string: 98.4

Query string: Fill in the blank: the reported growth of C(=Nc1ccc(-c2ccc(N=Cc3ccccc3)cc2)cc1)c1ccccc1 is ____.
Result string: 101

Query string: Give its growth value. Item: CCOC(=O)Cn1c(-c2nonc2NC(=O)c2ccccc2F)nc2ccccc21
Result string: 55.7

Query string: // returns reported growth for input Clc1ccc(-c2nc(-c3cccs3)no2)cc1
Result string: 103

---

- Test system: SNB-19 CNS
- test-name: NCI-60 one-dose screen, 48 h
- conditions-used: 10 µM unless noted
This is part of a sample that, as a whole, favours compounds with a hit. Of some 83,000 tested, about 20% had one in any assay. The source made the active and inactive calls. Rule for the calls: active = growth percent below 10; inactive = the rest.
In this exercise, the only acceptable responses are active, inactive

molecule	cat
CCn1c(Cc2ccccc2Nc2c(Cl)cccc2Cl)nnc1SCC(=O)Nc1cccc(OC)c1	inactive
O=C(Nc1cccc(-n2ccc3c(NC(=O)c4ccccc4)nccc32)c1)c1ccc(Cl)c(Cl)c1	active
CCN(CC)CC(=O)Nc1c(C)cc(C(=O)NN)cc1C	inactive
Clc1cccc(CNc2c3ccccc3nc3ccccc23)c1	inactive
CN1C2CCC1/C(=C\c1ccc(F)cc1)C(=O)/C2=C/c1ccc(F)cc1	inactive
C=C1C(=O)O[C@H]2[C@H]1CC/C(COC(=O)NCc1ccc(Cn3c(=O)sn(CCCl)c3=O)cc1)=C\CC[C@@]1(C)O[C@@H]21	inactive
CC(C)CCSc1nc(Nc2ccccc2)c(C#N)c(-c2ccc(F)cc2)n1	inactive
c1cc(C2CCCCC2)ccc1-c1cnc2nonc2n1	inactive
CC(=O)Nc1c(Br)cc2c(c1Br)Cc1cc(Br)ccc1-2	inactive
O=C1OC(/C=C/c2ccccc2)=NC/1=C/c1ccccc1[N+](=O)[O-]	inactive

Alright, here's another molecule for you.
Query string: State the result this test recorded for CC(=O)Cc1ccccn1 .
Result string: inactive

---

- Tested on: UACC-257 melanoma
- test-name: NCI-60 one-dose screen, 48 h (100 = growth as untreated, 0 = no growth, -100 = all killed)
- conditions-used: 10 µM unless noted
About 83,000 compounds went through this panel and 20% of them were active in at least one assay; those are over-represented in the sample as a whole.
In this section we review reported growth values for a set of compounds.
Expressed in %, but write only the number.

Worked cases, answers included:
compound	parameter	display-unit	meas-value
c1coc(CNc2c3ccccc3nc3ccccc23)c1	growth	%	81.7
C=CCOC(=O)C1=C(C)NC2=C(C(=O)CC(C)(C)C2)C1c1ccc(OC)cc1 (stereo not given)	growth	%	96.2
S=C(Nc1ccc(Cl)cc1)Nc1ccc(Cl)cc1 (tested in a mixture with another compound)	growth	%	-14.7
CCCCCCCC/C=C\CCCCCCCC(=O)OCCCCCC	growth	%	95.7

--- query ---
Query string: Quick one: growth of CNC(=O)c1c(NC(=O)c2cccc(C(F)(F)F)c2)sc2c1CCC(=O)C2 ?
Result string: -11

Values from PubChem BioAssay (NCI)
